- Test system: IGROV-1
- ASSAY REMARKS: NCI tumour cell line growth inhibition, 48 h
The source made the active and inactive calls. Rule as the data show it: active = GI50 up to about 1.1 µM and inactive = higher.
Your response should consist of one outcome taken from active, inactive

// known answers, use as guide
CCCc1c(Cl)nc(Cl)nc1Cl = active
O=[Se](O)O = active
COc1cc(O)c2c(=O)cc(-c3ccc(O)cc3O)oc2c1CC=C(C)C = inactive

We next turn to a different molecule, shown below.
Data request: # lookup: test call for "O=[N+]([O-])C(C(Cl)=C(Cl)Cl)=C(n1cncn1)n1cncn1"
Data returned: inactive

====

# GI50 per entry
- Tested on: Hs-578T
- ASSAY REMARKS: NCI tumour cell line growth inhibition, 48 h
Calls of active or inactive are those of the source. Cut-off read from the data, not from the text of the source: active = GI50 up to about 1.1 µM and inactive = higher.

CC(CCCC1SCC2NC(=O)NC21)C(=O)O (configuration not stated) = > 100 µM (inactive)
CCOc1ccc(NC(=O)/C(=N\N)C(C(=O)OC)c2nc3ccc(Cl)cc3nc2O)cc1 (configuration not stated) = > 100 µM (inactive)
Cc1ccc(-c2cc(-c3ccco3)c(C#N)c(=S)[nH]2)cc1 = 38.5 µM (inactive)
CCN(CC)CCNC(=O)c1ccc(C)c(OCc2ccccc2)c1[N+](=O)[O-] = 28.6 µM (inactive)
CN/N=C(\C)C(CN(C)C)C(c1ccccc1)c1c(O)c2ccccc2oc1=O (configuration not stated) = > 100 µM (inactive)
O=c1[nH]nc(Cc2ccccc2)n1/N=C/c1cccs1 = > 100 µM (inactive)

We now examine a further compound.
Consider "Cc1nc2c(=O)[nH]ncc2[nH]1" . Its measured GI50 is > 100 µM (inactive)

====

- Tested on: SK-MEL-5
- ASSAY REMARKS: NCI tumour cell line growth inhibition, 48 h
The source made the active and inactive calls. No stated cut-off is given here; in the data, active = GI50 up to about 1.1 µM and inactive = higher. Where a SMILES comes first, the peptide text is derived from it. The star is where a group is joined. Boc = CC(C)(C)OC(=O)*; OBn = c1ccc(CO*)cc1
MEASURED METRIC: GI50

N#CC1=C(C#N)/C(=C(\C#N)C(C#N)C#N)N=C1N = 17.3 µM (inactive)
COc1cc2[nH]c3c(c2cc1OC)CCN[C@]31CC[C@]2(CC3c4c(cc(OC)c(O)c42)CCN3C)C[C@H]1OC (some centres not stated) = 15 µM (inactive)
CC(C)CC(NC(=O)C(Cc1ccccc1)NC(=O)C(Cc1ccccc1)NC(=O)OC(C)(C)C)C(=O)OCc1ccccc1 (stereo not drawn) (Boc-Phe-Phe-Leu-OBn; configuration not given here) = > 100 µM (inactive)
CN(C)c1ccc(/C(Br)=C2\OC(=O)c3ccccc32)cc1 = 77.6 µM (inactive)
COC1CC(OC)C(O)C(CO)O1 (configuration not stated) = > 100 µM (inactive)
CCOC(OC1=C(C#N)CCC1)C(C)[Se]c1ccccc1 (configuration not stated) = 15.8 µM (inactive)

We now examine a further compound.
Consider "CC1=C(C(=O)OC(C)(C)C)C(c2ccc([N+](=O)[O-])cc2)C(C(=O)OC(C)(C)C)=C(C)N1" . Its measured GI50 is 18.2 µM (inactive)

====

# GI50 per entry
- Test system: SK-MEL-2
- ASSAY REMARKS: NCI tumour cell line growth inhibition, 48 h
The source made the active and inactive calls. Rule as the data show it: active = GI50 up to about 1.1 µM and inactive = higher.

Below: 5 compounds and their reported GI50.
COc1nc(NC2OC(COC(C)=O)C(OC(C)=O)C(OC(C)=O)C2OC(C)=O)c2c(OC(C)=O)c(C)c(=O)oc2n1 (stereo unspecified) = > 100 µM (inactive)
CC(C)=NNC(=S)NC12CC3CC(CC(C3)C1)C2 = > 100 µM (inactive)
CN(C)CCCNc1ccc([N+](=O)[O-])c2nc3ccccc3c(N)c12 = 1.38 µM (inactive)
CCCSc1ccc2[nH]c(/N=C/c3ccccc3)cc2c1 = 16.6 µM (inactive)
CCN(CC)CCNC(=O)c1ccc(C)c(OCc2ccccc2)c1[N+](=O)[O-] = 21.2 µM (inactive)

Consider "CCOC(=O)Cc1nc2sc(S(N)(=O)=O)nn2c1Br" . Its measured GI50 is 28.5 µM (inactive)
